Tested on: Lactobacillus paracasei
assay_notes: growth AUC relative to DMSO control (median of replicates) (fraction); higher = more growth (less inhibition), active = hit call of the paper
condition: 20 µM; 24 h
reported_property: growth AUC

Some compounds with known growth AUC results, for comparison:
INSERT INTO measurements (compound, measurement) VALUES
  ('CC(C)Nc1nc(N)nc(Cl)n1', '0.96 (inactive)'),
  ('O=C=NC1CCC(CC2CCC(N=C=O)CC2)CC1 (centres undefined)', '1.12 (inactive)'),
  ('CCc1cccc(CC)c1N(COC)C(=O)CS(=O)(=O)[O-].[Na+]', '1.02 (inactive)'),
  ('Cc1ccc(Cl)cc1', '0.997 (inactive)'),
  ('COC(=O)c1c(Cl)nn(C)c1S(=O)(=O)NC(=O)Nc1nc(OC)cc(OC)n1', '1.03 (inactive)'),
  ('O=c1cc(Cl)[nH]nc1-c1ccccc1', '0.748 (inactive)'),
  ('CCOC(=O)C1=NN(c2ccc(Cl)cc2Cl)C(C)(C(=O)OCC)C1 (centres undefined)', '0.883 (inactive)'),
  ('COC1CCC2(CC1)NC(=O)C(c1cc(C)ccc1C)C2O (centres undefined)', '1.03 (inactive)');

Below are 4 compounds. Give each one its growth AUC.
1. Cc1nc(C(F)(F)F)c(C(=O)Nc2c(Br)cc(OC(F)(F)F)cc2Br)s1
2. ClC=C(c1ccc(Cl)cc1)c1ccc(Cl)cc1
3. CCOC(=O)C(C)Oc1ccc(Oc2nc3ccc(Cl)cc3o2)cc1 (racemic)
4. CC1(C)C(=O)Oc2ccc(OS(C)(=O)=O)cc21

Out:
1. 1.1 (inactive)
2. 0.946 (inactive)
3. 0.97 (inactive)
4. 0.965 (inactive)

Give growth AUC for each listed item.
1. CC(=O)CC(c1ccccc1)c1c(O)c2ccccc2oc1=O (centres undefined)
2. Nc1ccc(S(=O)(=O)Nc2cnc3ccccc3n2)cc1
3. O=C(NCc1ncc(C(F)(F)F)cc1Cl)c1c(Cl)cccc1Cl
4. C[C@@]1(c2ccccc2)NC(=O)N(Nc2ccccc2)C1=O
5. N#Cc1ccc(CC(=NNC(=O)Nc2ccc(OC(F)(F)F)cc2)c2cccc(C(F)(F)F)c2)cc1 (mixture of isomers)

Out:
1: 0.943 (inactive); 2: 0.887 (inactive); 3: 0.981 (inactive); 4: 0.955 (inactive); 5: 0.959 (inactive)

# batch: return growth AUC for each of the 2 compounds below
1. CC(C)(C)C(=O)C(Oc1ccc(Cl)cc1)n1ccnc1 (centres undefined)
2. O=C(O)CCCc1c[nH]c2ccccc12

Out:
1. 0.971 (inactive)
2. 0.884 (inactive)

---

System: Escherichia coli ED1a
assay_notes: growth AUC relative to DMSO control (median of replicates) (fraction); higher = more growth (less inhibition), active = hit call of the paper
condition: 20 µM; 24 h
reported_property: growth AUC
Numbers only.

Hi team, please reply with growth AUC for each item in this list.
1. O=S(Cc1ccc(Cl)cc1)c1ccc(Cl)cc1 (stereo unspecified)
2. CCCOC(=O)c1ccc(C(=O)OCCC)nc1
3. CCc1ccc(C(c2ccc(CC)cc2)C(Cl)Cl)cc1
4. Cc1c(Br)c2ccc(F)cc2n1S(=O)(=O)c1ncn(S(=O)(=O)N(C)C)n1

Out:
[0.986, 1, 1.02, 0.999]

Count: 7. Required value per item: growth AUC.
1. N#Cc1ccc(CC(=NNC(=O)Nc2ccc(OC(F)(F)F)cc2)c2cccc(C(F)(F)F)c2)cc1 (mixture of isomers)
2. CCCCCCCC/C=C\CCCCCCCCCCCCC
3. Clc1ccc(C(c2ccccc2Cl)C(Cl)Cl)cc1 (stereo unspecified)
4. CCCCCCCCSCCO
5. CCNc1nc(Cl)nc(N(CC)CC)n1
6. Cc1cccc(C)c1N(C(=O)CCl)C1CCOC1=O (stereo unspecified)
7. N#CC(=NOCC1OCCO1)c1ccccc1

Out:
0.986
0.987
1
0.955
1.02
0.963
0.971

---

Please go through the items and note down their growth AUC.
System: Bacteroides clarus
assay_notes: growth AUC relative to DMSO control (median of replicates) (fraction); higher = more growth (less inhibition), active = hit call of the paper
condition: 20 µM; 24 h
One number for each entry.

INSERT INTO assay_data (smiles_representation, reported_property, measurement) VALUES
  ('CC(C)c1cc(Oc2ccccc2)cc(C(C)C)c1NC(=S)NC(C)(C)C', 'growth AUC', 0.96),
  ('CCCCOC(=O)[C@@H](C)Oc1ccc(Oc2ccc(C(F)(F)F)cn2)cc1', 'growth AUC', 0.932),
  ('Br[C@@H]1CC[C@@H](Br)[C@@H](Br)CC[C@H](Br)[C@H](Br)CC[C@H]1Br', 'growth AUC', 1),
  ('Nc1cc(Cl)nc(C(=O)O)c1Cl', 'growth AUC', 1.04);

Now turn to the next compound.
I looked up CN(C)C(=O)NC1CCCCCCC1 and its growth AUC for Bacteroides clarus was 1.01

---

Tested on: Streptococcus salivarius
assay_notes: growth AUC relative to DMSO control (median of replicates) (fraction); higher = more growth (less inhibition), active = hit call of the paper;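 active = AUC reduced over 20% with Padj below 0.05 in at least 2 of 3 replicates; inactive = otherwise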
condition: 20 µM; 24 h
Permitted responses: 1.0 = active, 0.0 = inactive

Previously resolved entries follow.
INSERT INTO assay_data (compound, label_class) VALUES
  ('CCCCCC(C)OC(=O)COc1ccc(Cl)c2cccnc12 (configuration not stated)', 0.0),
  ('COC(=O)c1cccc(C)c1S(=O)(=O)NC(=O)Nc1nc(OCC(F)(F)F)nc(N(C)C)n1', 0.0),
  ('CSc1nc(NC2CC2)nc(NC(C)(C)C)n1', 0.0),
  ('CC(C)OC(=O)c1cc(C(=O)OC(C)C)cc([N+](=O)[O-])c1', 0.0),
  ('CC(C)c1nn(C(=O)NC(C)(C)C)c(=O)n1N', 0.0);

In: # outcome recorded in this test, key = O=C(O)c1cccc2nnsc12
Out: 0.0

In: Which result was noted for this compound in the test: CCC/C(=N\OCC)C1=C(O)CC(C2CCCSC2)CC1=O (configuration not stated)
Out: 0.0

In: Tell me the assay call for N#Cc1cc(Cl)c(O)c(Cl)c1 please.
Out: 0.0

In: // outcome(item) with item = CCOC(=O)Cn1c(=O)sc2cccc(Cl)c21
Out: 0.0

In: # fetch the recorded call for C#CCN(C)c1c(C#N)cnn1-c1nn2c(c1Cl)CCCC2 here
Out: 0.0

In: So what was the verdict on CCSC(=O)N(CC)CC in this test?
Out: 0.0

---

Test system: Parabacteroides distasonis
assay_notes: growth AUC relative to DMSO control (median of replicates) (fraction); higher = more growth (less inhibition), active = hit call of the paper
condition: 20 µM; 24 h
Task for the reader: assign each of the following compounds its reported growth AUC.
Answers are plain numbers.

INSERT INTO assay_data (compound, measurement) VALUES
  ('C=CCc1ccc(O)c(OC)c1', 0.97);

Hey, can you go through the list below and give me growth AUC for every item?
1. Cc1cccc(C)c1N(CC(=O)O)C(=O)CS(=O)(=O)[O-].[Na+]
2. CCCCN(C)C(=O)Nc1ccc(Cl)c(Cl)c1
3. CC(C)C1C2CCC1c1c(NC(=O)c3cn(C)nc3C(F)F)cccc12 (stereo unspecified)
4. O=C(Nc1ccc(O)cc1-c1ccc(Cl)cc1)c1cccnc1Cl
5. CCc1cccc(C)c1NC(=O)C(=O)O

Out:
0.965
0.816
0.533
1.01
0.982

Could you report growth AUC for every entry in the following list?
1. COC(=O)c1ccc(C(F)(F)F)nc1S(=O)(=O)[N-]C(=O)Nc1nc(OC)cc(OC)n1.[Na+]
2. CC(C)(C)[C@@H](O)[C@@H](Cc1ccc(Cl)cc1)n1cncn1 (mixture of isomers)
3. CCCN(CCOc1c(Cl)cc(Cl)cc1Cl)C(=O)NC=O
4. COC(=O)C(C)Oc1ccc(Cl)cc1C (stereo unspecified)
5. O=[N+]([O-])c1ccc2c(c1)Cc1ccccc1-2

Out:
1: 1; 2: 0.983; 3: 0.925; 4: 1.02; 5: 1.1

---

Test system: Bacteroides clarus
assay_notes: growth AUC relative to DMSO control (median of replicates) (fraction); higher = more growth (less inhibition), active = hit call of the paper
condition: 20 µM; 24 h
Answer each item with its documented growth AUC.
Give bare numbers.

For each of the compounds below, note its growth AUC.
1. O=C(O)COc1ccc(Cl)c2cccnc12
2. c1ccc(CNc2ncnc3nc[nH]c23)cc1
3. FC(F)(F)C(=NOCC1OCCO1)c1ccc(Cl)cc1

Out:
1.03
0.992
1.05

For the 3 compounds below, give their growth AUC values.
1. COc1nc(OC)nc(C(=O)c2cccc(F)c2N(C)S(=O)(=O)C(F)F)n1
2. CNC(=O)Sc1ccc(OS(C)(=O)=O)cc1
3. CC(C)N(C(=O)C(=O)O)c1ccccc1

Out:
1: 1; 2: 0.858; 3: 1.05
